system: Mycobacterium tuberculosis strains H37Rv; assay: In Vitro Antitubercular H37Rv MIC Assay (resazurin); assay type: cell-based; details: 168 h; growth of Mycobacterium tuberculosis H37Rv, 7H9 medium, 7 days, tested 8-0.25 μg/mL
# maps each entry to its MIC

{"columns": ["cpd_smiles", "operator_symbol", "MIC / µg/mL"],
 "data": [
  ["COc1ccc(CCI)cc1", "=", 2],
  ["Cn1nc(-c2ccc(Cl)c(Cl)c2)nc2c(=O)n(C)c(=O)nc1-2", ">", 8],
  ["CCn1nc(-c2ccc(OC)cc2)nc2c(=O)n(C)c(=O)nc1-2", "=", 8],
  ["Nc1c(O)ccc2nsnc12", ">", 8],
  ["COc1ccc(-c2nc3c(=O)n(C)c(=O)nc-3n(C)n2)cc1", "=", 8],
  ["Cc1ccc(CNC(=O)C2CCN(S(=O)(=O)c3cn(C(C)C)cn3)CC2)cc1", ">", 8],
  ["COc1ccc(-c2nc3c(=O)n(C)c(=O)nc-3n(C)n2)cc1OC", ">", 8],
  ["O=C1C(=O)c2nn(-c3ccccc3)nc2-c2ccccc21", "=", 8],
  ["c1ccc2c(c1)ccn1c3ccccc3cc21", ">", 8],
  ["COc1ccc(NC(=O)CN(C)S(=O)(=O)c2cc(Br)cnc2N)cc1", ">", 8],
  ["O=C1C=C(NCc2ccccc2)c2ccccc2C1=O", "=", 8],
  ["C=CCOCc1ccccc1", "=", 8],
  ["CCOc1ccccc1/C=C1\\Cc2ccccc2C1=O", ">", 8],
  ["Cn1nc(-c2ccc(Cl)cc2)nc2c(=O)n(C)c(=O)nc1-2", ">", 8],
  ["CCCCn1c(NC(=O)c2ccc(Br)o2)c(C#N)c2nc3ccccc3nc21", ">", 8]
]}

====

Readings of pIC50 for the listed compounds
target: Mtb PDH (Lpd+DlaT+AceE) (Mycobacterium tuberculosis (strain ATCC 25618 / H37Rv)); experiment: PDH Inhibition Activity; format: biochemical; conditions: concentration required for 50% inhibition of PDH activity; fluorescence ex 360 nm / em 460 nm; read-out: PDH IC50
pIC50: −log10 of the molar value.
measurement_kind: pIC50

{"columns": ["compound", "measurement_kind", "value_measured"],
 "data": [
  ["CCn1nc(-c2ccc([N+](=O)[O-])cc2)nc2c(=O)n(C)c(=O)nc1-2", "pIC50", "> 7.40"],
  ["O=C(OC[C@H]1O[C@H](OC(=O)c2cc(O)c(O)c(OC(=O)c3cc(O)c(O)c(O)c3)c2)[C@H](OC(=O)c2cc(O)c(O)c(OC(=O)c3cc(O)c(O)c(O)c3)c2)[C@@H](OC(=O)c2cc(O)c(O)c(OC(=O)c3cc(O)c(O)c(O)c3)c2)[C@@H]1OC(=O)c1cc(O)c(O)c(OC(=O)c2cc(O)c(O)c(O)c2)c1)c1cc(O)c(O)c(OC(=O)c2cc(O)c(O)c(O)c2)c1", "pIC50", 6.35],
  ["CCn1nc(-c2cccs2)nc2c(=O)n(C)c(=O)nc1-2", "pIC50", "> 7.40"],
  ["CN1N=C(c2ccccc2)Nc2c1nc(O)n(C)c2=O", "pIC50", "> 7.40"],
  ["CCn1nc(/C=C/c2ccccc2)nc2c(=O)n(C)c(=O)nc1-2", "pIC50", "> 7.40"],
  ["CC(=O)C(C(C)=O)C1=CC(=O)C(=O)c2ccccc21", "pIC50", "< 5.30"],
  ["O=C1c2ccccc2-c2nc3nonc3nc21", "pIC50", "> 7.40"],
  ["O=C1C=C(NCc2ccccc2)c2ccccc2C1=O", "pIC50", 5.37],
  ["CCC(C)n1c(NC(=O)c2ccccc2)c(C#N)c2nc3ccccc3nc21 (stereo not shown)", "pIC50", "< 5.30"],
  ["Cc1nc2c(=O)n(C)c(=O)nc-2n(C)n1", "pIC50", "> 7.40"],
  ["C=CCn1c(NS(=O)(=O)c2ccccc2)c(C#N)c2nc3ccccc3nc21", "pIC50", 5.48],
  ["CCn1nc(-c2ccc(OC)cc2)nc2c(=O)n(C)c(=O)nc1-2", "pIC50", "> 7.40"],
  ["COCCn1c(NC(=O)c2cccc([N+](=O)[O-])c2)c(C#N)c2nc3ccccc3nc21", "pIC50", "< 5.30"],
  ["CCCCn1c(NC(=O)c2ccccc2)c(C#N)c2nc3ccccc3nc21", "pIC50", "< 5.30"],
  ["CCOC(=O)c1c(NS(=O)(=O)c2ccccc2)n(CCCOC)c2nc3ccccc3nc12", "pIC50", "< 5.30"],
  ["CC1(C)C(=O)N=C2c3ccccc3C(=O)C(=O)C21 (stereo not shown)", "pIC50", 5.93]
]}

====

tested on: Mycobacterium tuberculosis strains H37Rv; assay: In Vitro Antitubercular H37Rv MIC Assay (resazurin); assay type: cell-based; conditions: 168 h; growth of Mycobacterium tuberculosis H37Rv, 7H9 medium, 7 days, tested 8-0.25 μg/mL

{"columns": ["compound", "MIC"],
 "data": [
  ["O=C(OC[C@H]1O[C@H](OC(=O)c2cc(O)c(O)c(OC(=O)c3cc(O)c(O)c(O)c3)c2)[C@H](OC(=O)c2cc(O)c(O)c(OC(=O)c3cc(O)c(O)c(O)c3)c2)[C@@H](OC(=O)c2cc(O)c(O)c(OC(=O)c3cc(O)c(O)c(O)c3)c2)[C@@H]1OC(=O)c1cc(O)c(O)c(OC(=O)c2cc(O)c(O)c(O)c2)c1)c1cc(O)c(O)c(OC(=O)c2cc(O)c(O)c(O)c2)c1 [Compound 302]", "> 8 µg/mL"],
  ["O=C1c2ccccc2-c2nc3nonc3nc21 [Compound 103]", "≤ 0.25 µg/mL"]
]}

====

test system: Mycobacterium tuberculosis strains H37Rv; experiment: In Vitro Antitubercular H37Rv MIC Assay (resazurin); type: cell-based; settings: 168 h; growth of Mycobacterium tuberculosis H37Rv, 7H9 medium, 7 days, tested 8-0.25 μg/mL
measurement_kind: MIC

{"columns": ["molecule", "measurement_kind", "value_measured"],
 "data": [
  ["Nc1ccc2c(c1)C(=O)C(=O)c1ccccc1-2", "MIC", "> 8 µg/mL"],
  ["CCOC(=O)/C=C\\CBr", "MIC", "≤ 0.25 µg/mL"],
  ["C=CCn1c(NS(=O)(=O)c2ccccc2)c(C#N)c2nc3ccccc3nc21", "MIC", "> 8 µg/mL"],
  ["O=C1C(=O)c2cc([N+](=O)[O-])ccc2-c2ccccc21", "MIC", "> 8 µg/mL"],
  ["CC1(C)C(=O)N=C2c3ccccc3C(=O)C(=O)C21 (centres unmarked)", "MIC", "> 8 µg/mL"]
]}

====

molecular target: Mtb PDH (Lpd+DlaT+AceE) (Mycobacterium tuberculosis (strain ATCC 25618 / H37Rv), UniProt P9WHH9); test: PDH Inhibition Activity; format: biochemical; details: concentration required for 50% inhibition of PDH activity; fluorescence ex 360 nm / em 460 nm; read-out: PDH IC50
Reported IC50 values for the following compounds.
measurement_kind: IC50

{"columns": ["compound", "value_measured"],
 "data": [
  ["CCOC(=O)/C=C\\CBr [(XVI)]", "1650 nM"],
  ["O=C1c2ccccc2C(O)(O)[C@@]1(O)[C@]1(O)C(=O)c2ccccc2C1(O)O [Compound 101]", "1930 nM"],
  ["CCC(C)n1c(NC(=O)c2ccc(Br)o2)c(C#N)c2nc3ccccc3nc21 (stereo not drawn) [Compound 1009]", "> 5000 nM"],
  ["O=C1C(=O)c2cc([N+](=O)[O-])ccc2-c2ccccc21 [Compound 904]", "691 nM"],
  ["Cn1nc(-c2ccc([N+](=O)[O-])cc2)nc2c(=O)n(C)c(=O)nc1-2 [Compound 614]", "< 40 nM"],
  ["CCn1nc(-c2ccccc2Cl)nc2c(=O)n(C)c(=O)nc1-2 [Compound 615]", "< 40 nM"],
  ["CCn1nc(-c2ccc(C(=O)OC)cc2)nc2c(=O)n(C)c(=O)nc1-2 [Compound 621]", "< 40 nM"],
  ["Cn1nc(-c2ccccc2)nc2c(=O)n(C)c(=O)nc1-2 [Compound 601]", "< 40 nM"],
  ["COc1ccc(CCI)cc1 [Compound 303]", "< 40 nM"]
]}

====

Collected pIC50 values appear next to each entry.
biological target: lipoamide dehydrogenase (Lpd) (Mycobacterium tuberculosis (strain ATCC 25618 / H37Rv), UniProt P9WHH9); assay: Lipoamide Dehydrogenase (Lpd) Inhibition Assay; format: biochemical; conditions: concentration required for 50% inhibition of LPD activity; DTNB detection, OD405 nm
pIC50: −log10 of the molar value.
measurement_kind: pIC50

{"columns": ["compound", "measurement_kind", "operator_symbol", "value_measured"],
 "data": [
  ["CC(C)n1cnc(S(=O)(=O)N2CCC(C(=O)NCc3ccc(Cl)cc3)CC2)c1", "pIC50", "=", 5.43],
  ["CC(C)n1cnc(S(=O)(=O)N2CCC(C(=O)Nc3cccc(F)c3)CC2)c1", "pIC50", "=", 5.44],
  ["Cc1nc2c(=O)n(C)c(=O)nc-2n(C)n1", "pIC50", "=", 7.10],
  ["Cn1nc(-c2ccccc2)nc2c(=O)n(C)c(=O)nc1-2", "pIC50", ">", 7.40],
  ["CC(C)n1cnc(S(=O)(=O)N2CCC(C(=O)Nc3ccc(S(N)(=O)=O)cc3)CC2)c1", "pIC50", "=", 5.39],
  ["COc1ccc(CNC(=O)C2CCN(S(=O)(=O)c3cn(C(C)C)cn3)CC2)cc1", "pIC50", "=", 5.48],
  ["CCSc1nnc(NC(=O)C2CCN(S(=O)(=O)c3cn(CC)cn3)CC2)s1", "pIC50", "=", 5.51],
  ["CC(C)n1cnc(S(=O)(=O)N2CCC(C(=O)Nc3cccc(-c4ccno4)c3)CC2)c1", "pIC50", "=", 5.67],
  ["Cc1cccc(NC(=O)C2CCN(S(=O)(=O)c3cn(C(C)C)cn3)CC2)c1", "pIC50", "=", 5.58],
  ["CC(C)n1cnc(S(=O)(=O)N2CCC(C(=O)Nc3cccc(Br)c3)CC2)c1", "pIC50", "=", 5.56],
  ["Cc1ccc(CNC(=O)C2CCN(S(=O)(=O)c3cn(C(C)C)cn3)CC2)cc1", "pIC50", "=", 5.52],
  ["CC(C)n1cnc(S(=O)(=O)N2CCC(C(=O)Nc3ccc(Br)cc3F)CC2)c1", "pIC50", "=", 5.60],
  ["Cc1ccc(NC(=O)C2CCN(S(=O)(=O)c3cn(C(C)C)cn3)CC2)cc1N(C)C", "pIC50", "=", 5.55],
  ["CCOC(=O)c1ccc(NC(=O)C2CCN(S(=O)(=O)c3cn(C(C)C)cn3)CC2)cc1", "pIC50", "=", 5.61],
  ["CC(C)c1ccc(NC(=O)CN(C)S(=O)(=O)c2cc(Br)cnc2N)cc1", "pIC50", "=", 6.08],
  ["CC(C)n1cnc(S(=O)(=O)N2CCC(C(=O)NC3CC3)CC2)c1", "pIC50", "=", 5.52],
  ["Nc1ccc2c(c1)C(=O)C(=O)c1ccccc1-2", "pIC50", "=", 6.17],
  ["CCOC(=O)/C=C\\CBr", "pIC50", "=", 5.53],
  ["Cn1nc(-c2ccc([N+](=O)[O-])cc2)nc2c(=O)n(C)c(=O)nc1-2", "pIC50", ">", 7.40],
  ["CCn1nc(-c2ccccc2Cl)nc2c(=O)n(C)c(=O)nc1-2", "pIC50", ">", 7.40],
  ["CC(=O)C(C(C)=O)C1=CC(=O)C(=O)c2ccccc21", "pIC50", "=", 5.67],
  ["CCCCn1c(NC(=O)c2cccs2)c(C#N)c2nc3ccccc3nc21", "pIC50", "=", 6.07],
  ["COc1ccc(-c2nc3c(=O)n(C)c(=O)nc-3n(C)n2)cc1OC", "pIC50", "=", 6.02],
  ["CC(C)Oc1ccc(CNC(=O)C2CCN(S(=O)(=O)c3cn(C(C)C)cn3)CC2)cc1", "pIC50", "=", 5.41],
  ["CCn1nc(/C=C/c2ccccc2)nc2c(=O)n(C)c(=O)nc1-2", "pIC50", ">", 7.40],
  ["CN(C(=O)c1ccc(Cn2cccn2)o1)c1nc2c(s1)CCc1c-2cnn1C", "pIC50", "=", 5.44],
  ["CCC(C)n1c(NC(=O)c2ccccc2)c(C#N)c2nc3ccccc3nc21 (centres unmarked)", "pIC50", "=", 6.06],
  ["CC(C)n1cnc(S(=O)(=O)N2CCC(C(=O)Nc3ccc4c(c3)OCCO4)CC2)c1", "pIC50", "=", 5.80],
  ["CCCCn1c(NC(=O)c2ccccc2)c(C#N)c2nc3ccccc3nc21", "pIC50", "=", 6.28],
  ["COc1ccc(-c2nc3c(=O)n(C)c(=O)nc-3n(C)n2)cc1", "pIC50", "=", 7.15],
  ["COCCN(C(=O)c1nsc(Cl)c1Cl)c1nc2c(s1)CCc1c-2cnn1C", "pIC50", "=", 5.65],
  ["CCCCn1c(NS(=O)(=O)c2ccc(C)cc2)c(C#N)c2nc3ccccc3nc21", "pIC50", "=", 6.05],
  ["CCOc1ccc2cc(CNc3ccc(O)cc3)c(O)nc2c1", "pIC50", "=", 5.48],
  ["COc1ccc(NC(=O)C2CCN(S(=O)(=O)c3cn(C(C)C)cn3)CC2)cc1OC", "pIC50", "=", 5.74],
  ["CCOc1ccc2nc(O)c(CNc3ccc4[nH]ncc4c3)cc2c1", "pIC50", "=", 5.34]
]}

Taken from patent US9073941B2.
